# EXPERIMENTAL SYSTEM: T1, Histidine-tagged human CD40 protein (hCD40-His) (human, UniProt P25942 21-193)
# T1 construct: not shown: histidine tag
# T1 sequence (P25942 21-193 limits assumed): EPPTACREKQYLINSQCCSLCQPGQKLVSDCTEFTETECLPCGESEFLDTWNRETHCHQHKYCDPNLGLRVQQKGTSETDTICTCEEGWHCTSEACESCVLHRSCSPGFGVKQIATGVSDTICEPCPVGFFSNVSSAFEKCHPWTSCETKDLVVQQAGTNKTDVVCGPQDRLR
# TEST SUMMARY: SPR, Biacore T200; antibody on Protein A chip, hCD40-His injected; 1:1 fit
# Procedure: The binding affinity of the anti-hCD40 antibodies were measured using surface plasmon resonance (SPR) using Biacore (Biacore, INC, Piscataway N.J.) T200 biosensor equipped with pre-immobilized Protein A sensor chips. Anti-hCD40 antibodies were collected by transfecting CHO-S cells and then purified. […] Dissociation was monitored for 300 seconds. […]
MEASURE NAME: koff (s⁻¹)
Numbers only; they are read as s⁻¹.

1) 7F10-H1K3-IgG4 (antibody, V domains shown, Humanized) VH: EVQLVESGGGLVQPGGSLRLSCATSGFTFSDYYMYWVRQAPGKRLEWVAYISYGGDSTFYPDTVRGRFTISRDNAKNSLYLQMNSLRAEDTAVYYCARPAPSAHSYYLDYWGQGTLLTVSS VL: DIQMTQSTSSLSASVGDRVTITCRASQDISNYLNWYQQKPGGAVKLLIYYTSRLHSGLPSRFSGSGSGTDYTLTISSLQQEDIATYYCQQGKTLPFTFASGTKLEIK    0.0391

Ask: What measured koff goes with 7F10-H3K3-IgG4 (antibody, V domains shown, Humanized) VH: EVKLVESGGGLVQPGGSLRLSCATSGFTFSDYYMYWVRQAPEKRLEWVAYISYGGDSTFYPDTVRGRFTISRDNAKNALYLQMSRLKAEDTAVYYCARPAPSAHSYYLDYWGQGTTLTVSS VL: DIQMTQSTSSLSASVGDRVTITCRASQDISNYLNWYQQKPGGAVKLLIYYTSRLHSGLPSRFSGSGSGTDYTLTISSLQQEDIATYYCQQGKTLPFTFASGTKLEIK ?
Reply: 0.0314

Ref: patent US20250034271A1
